# assayedSystem: Transient receptor potential cation channel subfamily M member 8 (Homo sapiens, UniProt Q7Z2W7)
# Sequence (Q7Z2W7 whole entry): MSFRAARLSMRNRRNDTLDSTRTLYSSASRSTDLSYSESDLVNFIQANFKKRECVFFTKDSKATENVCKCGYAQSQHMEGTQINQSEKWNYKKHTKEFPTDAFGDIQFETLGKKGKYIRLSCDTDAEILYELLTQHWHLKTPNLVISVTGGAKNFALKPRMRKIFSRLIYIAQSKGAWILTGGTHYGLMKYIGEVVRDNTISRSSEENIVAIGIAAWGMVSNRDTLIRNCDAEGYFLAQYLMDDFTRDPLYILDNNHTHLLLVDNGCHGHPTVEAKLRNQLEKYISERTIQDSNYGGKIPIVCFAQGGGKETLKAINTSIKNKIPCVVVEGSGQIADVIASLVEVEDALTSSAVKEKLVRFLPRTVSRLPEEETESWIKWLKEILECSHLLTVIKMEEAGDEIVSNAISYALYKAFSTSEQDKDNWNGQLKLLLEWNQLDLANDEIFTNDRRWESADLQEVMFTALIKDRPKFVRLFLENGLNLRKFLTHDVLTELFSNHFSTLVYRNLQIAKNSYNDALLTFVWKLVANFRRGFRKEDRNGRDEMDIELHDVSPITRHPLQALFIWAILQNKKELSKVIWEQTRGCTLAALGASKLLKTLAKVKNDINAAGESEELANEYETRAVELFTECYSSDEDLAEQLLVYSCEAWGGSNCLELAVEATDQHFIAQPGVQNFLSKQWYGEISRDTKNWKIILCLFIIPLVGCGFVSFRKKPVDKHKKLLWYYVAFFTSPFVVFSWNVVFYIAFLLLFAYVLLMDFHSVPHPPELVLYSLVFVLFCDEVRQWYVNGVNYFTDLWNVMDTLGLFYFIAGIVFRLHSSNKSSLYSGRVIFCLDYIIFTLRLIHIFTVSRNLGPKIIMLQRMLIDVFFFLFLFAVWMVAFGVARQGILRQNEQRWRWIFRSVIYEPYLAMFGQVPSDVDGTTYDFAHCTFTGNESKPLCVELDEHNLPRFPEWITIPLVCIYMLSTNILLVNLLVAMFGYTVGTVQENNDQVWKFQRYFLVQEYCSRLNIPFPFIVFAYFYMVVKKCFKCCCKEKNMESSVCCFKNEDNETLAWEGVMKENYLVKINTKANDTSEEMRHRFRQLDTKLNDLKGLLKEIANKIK
# testMethodNotes: Agonist activity at full length recombinant human TRPM8 expressed in HEK293 cells assessed as increase in intracellular Ca2+ level pre-incubated for 5 mins by Fluo4-AM dye-based fluorescence assay
metricName: EC50 (nM)
Numbers only, in nM.

- molecule: "C=CCc1cc(OC)c(OC(C)C(OCC)c2ccc(O)c(OC)c2)c(OC)c1 (mixture of isomers)"
  EC50 [nM]: 332
- molecule: "C=CCc1cc(OC)c(OC(C)C(OC)c2ccc(O)c(OC)c2)c(OC)c1 (centres undefined)"
  EC50 [nM]: 3450

For each entry beneath this line, provide reported EC50.
1. C=CCc1cc(OC)c(O[C@H](C)[C@@H](OCC)c2ccc(O)c(OC)c2)c(OC)c1
2. C=CCc1cc(OC)c(OC(C)C(OC2CCCCC2)c2ccc(O)c(OC)c2)c(OC)c1 (centres undefined)

output:
[1150, 54]

Consider the following items and state reported EC50 for each.
1. C=CCc1cc(OC)c(OC(C)C(OCCCCCCCCCC)c2ccc(O)c(OC)c2)c(OC)c1 (centres undefined)
2. C=CCc1cc(OC)c(O[C@H](C)[C@H](OCC)c2ccc(O)c(OC)c2)c(OC)c1
3. C=CCc1cc(OC)c(O[C@@H](C)[C@H](OCC)c2ccc(O)c(OC)c2)c(OC)c1

output:
[66, 583, 1130]

* * *

# assayedSystem: Transient receptor potential cation channel subfamily M member 8 (Homo sapiens, UniProt Q7Z2W7)
# testMethodNotes: Agonist activity at full length recombinant human TRPM8 expressed in HEK293 cells assessed as increase in intracellular Ca2+ level pre-incubated for 5 mins by Fluo4-AM dye-based fluorescence assay
Please note: EC50 exactly at 80 nM is not satisfied. Only values below 80 nM get satisfied.

- molecule: "C=CCc1cc(OC)c(OC(C)C(O[C@H]2C[C@@H](C)CC[C@@H]2C(C)C)c2ccc(O)c(OC)c2)c(OC)c1 (some centres undefined)"
  classAssignment: "satisfied"
- molecule: "C=CCc1cc(OC)c(OC(C)C(O[C@@H]2C[C@H](C)CC[C@H]2C(C)C)c2ccc(O)c(OC)c2)c(OC)c1 (some centres undefined)"
  classAssignment: "satisfied"
- molecule: "C=CCc1cc(OC)c(O[C@H](C)[C@@H](O)c2ccc(OC)c(OC)c2)c(OC)c1"
  classAssignment: "not satisfied"
- molecule: "C=CCc1cc(OC)c(OC(C)C(OCC(C)C)c2ccc(O)c(OC)c2)c(OC)c1 (centres undefined)"
  classAssignment: "not satisfied"
- molecule: "C=CCc1cc(OC)c(O[C@H](C)[C@@H](OC(C)=O)c2ccc(OC)c(OC)c2)c(OC)c1"
  classAssignment: "not satisfied"

input: Dear reviewer, please state whether C=CCc1cc(OC)c(OC(C)C(OCCCCCC)c2ccc(O)c(OC)c2)c(OC)c1 (centres undefined) has EC50 strictly beneath 80 nM.
output: not satisfied

input: # TODO verify EC50 < 80 nM strictly for this molecule: C=CCc1cc(OC)c(OC(C)C(OCCCCCCCC)c2ccc(O)c(OC)c2)c(OC)c1 (centres undefined)
output: not satisfied

input: A record lists C=CCc1cc(OC)c(OC(C)C(OCCOCCCC)c2ccc(O)c(OC)c2)c(OC)c1 (centres undefined) . Is its EC50 below 80 nM?
output: not satisfied

Entry source: ChEMBL document CHEMBL4052790
